Tested on: SK-MEL-2 melanoma
EXPERIMENT: NCI tumour cell line growth inhibition, 48 h; in the data active = GI50 below about 0.43 µM; inactive = the rest
Give your call using only these classes: Y (active), N (inactive)

**Query** For CC(=O)N1c2ccccc2NC2=C(C(=O)N(Cc3ccccc3)C2(C)C)C1c1ccco1 (stereo not given) , what call appears in the results of this test?
**Result** N

**Query** Could you please tell me the result logged for "CN1CCN(c2cc(C(=O)Nc3cc4cc(-c5cnn(C)c5)ccc4cn3)ccn2)CC1" in this assay?
**Result** Y

**Query** Which outcome was assigned to "CN(C)C/C=C/C(=O)Nc1cc2c(Nc3ccc(F)c(Cl)c3F)ncnc2cc1OCCOC(F)F" in this test?
**Result** N

**Query** So what was the verdict on COC1C(O)C(C)OC(OC2C(Oc3cccc4c(O)c5c(=O)oc6ccc(C)c7c(=O)oc(c34)c5c67)OC(C)C(O)C2O)C1O (stereo not given) in this test?
**Result** N

Now, please, on to the next molecule.
**Query** Please state the recorded outcome for this molecule: "C[C@@H]1Cc2c([nH]c3ccccc23)[C@@H](c2c(F)cc(NC3CN(CCCF)C3)cc2F)N1CC(F)(F)CO"
**Result** N

###

The following molecules are shown together with reported TGI values.
Test system: OVCAR-4 ovarian
EXPERIMENT: NCI tumour cell line growth inhibition, 48 h

Examples with their reported TGI follow.
Measured TGI, "N#CC(=C1CCCCC1)c1nc2ccccc2o1" : > 100 µM

The recorded TGI for entry "COc1ccc(Cc2cc3c(cc2OCC(=O)O)OCO3)cc1" equals > 100 µM

Others:
# molecule "COC(=O)NC1(NC(=O)OC)NC(=O)c2cc(OC)c(OC)c(OC)c2N1" ; its TGI = > 100 µM

Item: "NCCN.NCCN.O=C[O-].O=C[O-].[Co+3].[O-][Cl+3]([O-])([O-])[O-]" | TGI: > 100 µM

Record "CC(C)CC(=O)Nc1n[nH]c2c1CN(C(=O)C1CCN(C)CC1)C2(C)C" . Reported TGI: > 10 µM

Kindly note the recorded TGI for "COC(=O)CCC(=O)Nc1cc(Cl)ccc1Cl" , which is > 100 µM

TGI reading for Cc1ccc([N+](=O)[O-])cc1S(=O)(=O)Nc1ccc(C2=NNC(c3ccccc3O)C2)cc1 (stereo unspecified) : 63.8 µM

The reported TGI of the molecule COc1ccc(C2Oc3cc(OC)c(O)c(C)c3[C@H]2C)cc1 (stereo partly specified) was > 100 µM

Field TGI (entry "O=C(Nc1cc2c(=O)oc3ccccc3c2oc1=O)c1cccnc1" ) reads > 100 µM

Recorded result, COc1cc(/C=C2/SC(c3ccccc3)N(c3ccccc3)C2=O)cc(OC)c1OC (stereo unspecified) , TGI: > 100 µM

Entry NC(=O)c1coc(C2OC(CO)C(O)C2O)n1 (stereo unspecified) ; TGI = > 100 µM

###

Tested on: UO-31 renal
EXPERIMENT: NCI tumour cell line growth inhibition, 48 h
TGI overview

Lab note: measured TGI of Cc1ccc([N+](=O)[O-])cc1S(=O)(=O)Nc1ccc(C2=NNC(c3ccccc3O)C2)cc1 (centres undefined) was 79.2 µM

For CC(C)C1CC2C(=O)N(c3ccccc3)C(=O)C2c2[nH]c3ccccc3c21 (centres undefined) the molecule record lists TGI as 80.4 µM

TGI measured on "Cc1oc(N)c(S(=O)(=O)c2ccc(Cl)cc2)c1C" = > 100 µM

Summary for this molecule, C=C1C(=O)C[C@@]23CCC[C@@]12CC(OCOC)C3 (some centres undefined) : TGI is 13.3 µM

GET /value?item= "Cn1c(-c2cccs2)cc(-c2cccs2)c1-c1ccco1" &field=TGI returns > 100 µM

The molecule listed as COc1cc(C=C2C(C)=NN(c3cccc(Cl)c3)C23C(Cl)C(=O)N3c2nc3ccccc3s2)ccc1O (centres undefined) shows TGI equal to 55 µM

TGI in this record for "CC(=O)NNc1nc(C)c(C(/C=C/c2ccc([N+](=O)[O-])cc2)=N/NC(N)=S)s1" : > 100 µM

Record summary for "CC1(C)OB(O)OC1(C)C" : reported TGI = > 100 µM

Looking up "Cc1nc(-c2ccccc2)cc2c1c(=O)oc1ccccc12" , I see its TGI listed as > 100 µM

GET /value?item= "CCN1C[C@]2(C)CC[C@H](OC)C34C1C([C@H](OC(C)=O)[C@@H]32)[C@@]1(OC)C[C@H](OC)[C@H]2C[C@@H]4[C@@H]1[C@H]2O" &field=TGI returns > 100 µM

More entries:
The molecule listed as CN1C(c2ccccc2)CS(=O)(=O)CS1(=O)=O (centres undefined) has a reported TGI of > 100 µM

Record CCN(CC)c1ccc2c(c1)Oc1nc(N)c(C#N)c(N)c1C2Sc1ccc(OC)cc1 (centres undefined) . Reported TGI: 2.85 µM

CN1CCCCC(C#N)(c2ccccc2)CC1 (centres undefined) yielded TGI of > 100 µM

What the record says about CC(=O)O[C@H]1CCC2[C@@H]3CCC4=C(O)C(=O)C(C#N)C[C@]4(C)C3CC[C@@]21C (some centres undefined) : TGI is > 100 µM

###

Below, each entry is listed with its recorded TGI.
System: HCT-15 colon
EXPERIMENT: NCI tumour cell line growth inhibition, 48 h

# count of solved cases: 5
The compound listed as COc1ccc(/C=C2\CCC(C)/C(=C\c3ccc(OC)c(OC)c3)C2=O)cc1OC (centres undefined) has a reported TGI of 21.2 µM

Memo: "C[C@@H](CN1CC(=O)NC(=O)C1)N1CC(=O)NC(=O)C1" , reported TGI: 823 µM

Summary for this compound, CC(=O)O[C@H]1CCC2[C@@H]3CCC4=C(O)C(=O)C(C#N)C[C@]4(C)C3CC[C@@]21C (some centres undefined) : TGI is > 100 µM

What the record says about Cc1ccc2c(sc(-c3ccc4c(c3)sc(-c3ccc5c(c3)sc(-c3ccc(N(C)C)cc3)[n+]5C)[n+]4C)[n+]2C)c1S(=O)(=O)O (tested in a mixture with another compound) : TGI is > 100 µM

TGI reading for "COC1=CC(=O)C(OC)=C(OC)C1=O" : 33.7 µM

More entries:
So, "CCCCc1ccc(Nc2nc(=S)c3[nH]cnc3[nH]2)cc1" ? Its TGI was > 100 µM

Record C#CCN(N=O)C(=O)NC(CCCNC(=O)OCc1ccccc1)C(=O)OCc1ccccc1 (centres undefined) , field TGI: > 100 µM

Form: compound = "O=C(/C=N/O)Nc1cc(Cl)c(Cl)cc1Cl" ; TGI = > 100 µM

According to the records, this compound "CC(C)OP(=O)(OC(C)C)/C(C#N)=C/c1ccco1" displays TGI of > 100 µM

###

Tested on: SW-620 colon
EXPERIMENT: NCI tumour cell line growth inhibition, 48 h
TEST READOUT: TGI

Examples with their reported TGI follow.
// compound "Cc1ccc(S(=O)(=O)N2C[C@](O)(c3ccccc3)[C@H]2C)cc1" , assay SW-620 colon, TGI value: > 100 µM

Assay SW-620 colon, sample "CC(=O)Oc1cc2c(c3ncccc13)OC(C)(C)C2" , TGI read: > 100 µM

# value of TGI, SW-620 colon, item "C[C@@H](CN1CC(=O)NC(=O)C1)N1CC(=O)NC(=O)C1" = 1030 µM

The compound "CCCCSC1=N/C(=C\c2ccc(N(C)C)cc2)C(NN)=N1" on SW-620 colon: TGI was > 100 µM

# "CC1=C(C(=O)NCc2ccccc2)C(c2ccc([N+](=O)[O-])cc2)C(C(=O)NCc2ccccc2)=C(C)N1" with SW-620 colon: TGI is > 100 µM

---
Bench note, SW-620 colon: Cc1ccc(NC(=O)C(=O)CC(=O)C2CCOC2=O)c(C)c1 (stereo unspecified) , TGI reads > 100 µM

// TGI (SW-620 colon) for "Cc1oc(N)c(S(=O)(=O)c2ccc(Cl)cc2)c1C" = > 100 µM

"Cc1nc(C(N)=S)sc1C(/C=C/c1ccc(Cl)c(Cl)c1)=N/NC(C)(C)C" on SW-620 colon gives TGI = > 100 µM

Considering "Oc1ccccc1C=Nc1ccc(-c2nc3ccccc3[nH]2)cc1" , its TGI with SW-620 colon was recorded as > 100 µM

Entry C/C1=C/C(C)CC(C)OC(=O)C(C)NC(=O)C(Cc2ccc(O)c(I)c2)N(C)C(=O)C(C)NC(=O)C(C)C1 (stereo unspecified) , tested on SW-620 colon, has a reported TGI of > 100 µM

The compound O=C(O)/C(Cl)=C(\Cl)C(=O)NC1C2CC3CC(C2)CC1C3 (stereo unspecified) , when measured on SW-620 colon, yielded TGI of > 100 µM
